test system: spontaneously hypertensive rats of the Okamoto strain; assay: Reduction of mean arterial blood pressure in spontaneously hypertensive rats; type: in vivo, rat; conditions: 100 mg/kg by gavage, second identical dose at 24 h, measured at 28 h; male SHR, average MABP 160±1.5 mm of mercury
Measured MABP/mm Hg (mean arterial blood pressure) of individual entries
The response must be a number in mm Hg with no trailing unit.

{"columns": ["smiles", "reading"],
 "data": [
  ["N#Cc1ncn2c1N(C(=O)CCN1CCN(c3ccc(F)cc3)CC1)CC=C2c1cccc(C(F)(F)F)c1", 110],
  ["CCOC(=O)N1CCN(CCC(=O)N2CC=C(c3cccc(C(F)(F)F)c3)n3cnc(C#N)c32)CC1.Cl", 134]
]}

Could you share what MABP/mm Hg (mean arterial blood pressure) was measured for `N#Cc1ncn2c1N(C(=O)CN1CCN(CCCOc3ccccc3)CC1)CC=C2c1cccc(C(F)(F)F)c1` , tested on spontaneously hypertensive rats of the Okamoto strain?
130

Could you share what MABP/mm Hg (mean arterial blood pressure) was measured for `N#Cc1ncn2c1N(C(=O)CN1CCC(c3ccccc3)CC1)CC=C2c1cccc(C(F)(F)F)c1` , tested on spontaneously hypertensive rats of the Okamoto strain?
137

* * *

tested on: spontaneously hypertensive rats of the Okamoto strain; assay: Reduction of mean arterial blood pressure in spontaneously hypertensive rats; format: in vivo, rat; details: 100 mg/kg by gavage, second identical dose at 24 h, measured at 28 h; male SHR, average MABP 160±1.5 mm of mercury
Measured MABP/mm Hg (mean arterial blood pressure) of individual entries
The response must be a number in mm Hg with no trailing unit.

// below: answered compounds
{"columns": ["compound", "target.desc", "unit.symbol", "reading"],
 "data": [
  ["N#Cc1ncn2c1N(C(=O)CN1CCN(c3ccc(Cl)cc3)CC1)CC=C2c1cccc(C(F)(F)F)c1", "spontaneously hypertensive rats of the Okamoto strain", "mm Hg", 137],
  ["COc1ccc(Cl)cc1NCC(=O)N1CC=C(c2cccc(C(F)(F)F)c2)n2cnc(C#N)c21", "spontaneously hypertensive rats of the Okamoto strain", "mm Hg", 135],
  ["N#Cc1ncn2c1N(C(=O)CCN1CCN(c3ccccc3)CC1)CC=C2c1cccc(C(F)(F)F)c1", "spontaneously hypertensive rats of the Okamoto strain", "mm Hg", 115],
  ["C#CCN1CCN(CC(=O)N2CC=C(c3cccc(C(F)(F)F)c3)n3cnc(C#N)c32)CC1.Cl.Cl", "spontaneously hypertensive rats of the Okamoto strain", "mm Hg", 129],
  ["N#Cc1ncn2c1N(C(=O)CCN1CCN(c3ccc(Cl)cc3)CC1)CC=C2c1cccc(C(F)(F)F)c1", "spontaneously hypertensive rats of the Okamoto strain", "mm Hg", 118]
]}

Bench note: what MABP/mm Hg (mean arterial blood pressure) did N#Cc1ncn2c1N(C(=O)CN1CCN(C(c3ccccc3)c3ccc(Cl)cc3)CC1)CC=C2c1cccc(C(F)(F)F)c1 (stereo not shown) show?
137

Bench note: what MABP/mm Hg (mean arterial blood pressure) did `N#Cc1ncn2c1N(C(=O)CCN1CCN(Cc3ccc(Cl)cc3)CC1)CC=C2c1cccc(C(F)(F)F)c1` show?
128

* * *

molecular target: [^3 H]-imipramine receptor (human platelet membranes) (Homo sapiens, UniProt P31645); construct: Platelet membranes were obtained using the procedure described by Wennogle, L. P., et al; tissue New York Blood Center; host or cells: human platelets (washed, sonicated membranes); assay: Inhibition of [^3 H]-imipramine binding to human platelet membranes; conditions: 1.5 h, 10 μm test compound, 90 minutes at 0° C., duplicate; more than 50% considered active
Sequence (P31645 whole entry): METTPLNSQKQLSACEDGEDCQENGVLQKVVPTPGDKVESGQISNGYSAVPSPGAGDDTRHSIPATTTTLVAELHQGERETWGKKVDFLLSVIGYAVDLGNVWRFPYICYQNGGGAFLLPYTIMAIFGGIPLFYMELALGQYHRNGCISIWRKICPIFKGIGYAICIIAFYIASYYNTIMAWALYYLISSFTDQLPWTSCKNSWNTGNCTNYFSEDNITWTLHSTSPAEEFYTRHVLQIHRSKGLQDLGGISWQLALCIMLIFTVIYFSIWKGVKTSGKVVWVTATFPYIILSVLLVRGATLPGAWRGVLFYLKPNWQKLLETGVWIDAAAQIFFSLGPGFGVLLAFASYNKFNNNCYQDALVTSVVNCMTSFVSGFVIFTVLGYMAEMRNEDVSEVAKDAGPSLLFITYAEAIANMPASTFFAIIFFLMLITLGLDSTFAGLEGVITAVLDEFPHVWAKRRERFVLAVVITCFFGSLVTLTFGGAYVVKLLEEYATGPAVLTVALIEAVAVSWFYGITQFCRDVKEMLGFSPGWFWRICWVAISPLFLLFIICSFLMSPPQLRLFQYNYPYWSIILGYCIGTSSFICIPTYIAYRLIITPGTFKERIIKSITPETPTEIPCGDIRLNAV
Measured inhibition at 10 µM of individual entries
The response must be a number in % with no trailing unit.

Could you share what inhibition at 10 µM was measured for `N#Cc1ncn2c1N(C(=O)CN1CCN(CCCOc3ccccc3)CC1)CC=C2c1cccc(C(F)(F)F)c1` , tested on [^3 H]-imipramine receptor (human platelet membranes) (Homo sapiens, UniProt P31645)?
50

Could you share what inhibition at 10 µM was measured for `N#Cc1ncn2c1N(C(=O)CN1CCN(Cc3ccc(Cl)cc3)CC1)CC=C2c1cccc(C(F)(F)F)c1` , tested on [^3 H]-imipramine receptor (human platelet membranes) (Homo sapiens, UniProt P31645)?
93

Could you share what inhibition at 10 µM was measured for `N#Cc1ncn2c1N(C(=O)CCN1CCN(c3ccc(Cl)cc3)CC1)CC=C2c1cccc(C(F)(F)F)c1` , tested on [^3 H]-imipramine receptor (human platelet membranes) (Homo sapiens, UniProt P31645)?
53

Could you share what inhibition at 10 µM was measured for `N#Cc1ncn2c1N(C(=O)CCN1CCN(c3ccc(F)cc3)CC1)CC=C2c1cccc(C(F)(F)F)c1` , tested on [^3 H]-imipramine receptor (human platelet membranes) (Homo sapiens, UniProt P31645)?
78

Could you share what inhibition at 10 µM was measured for `N#Cc1ncn2c1N(C(=O)CCN1CCN(Cc3ccccc3)CC1)CC=C2c1cccc(C(F)(F)F)c1` , tested on [^3 H]-imipramine receptor (human platelet membranes) (Homo sapiens, UniProt P31645)?
61
